Attribution: ChEMBL document CHEMBL4138126

# System: SF-295
# Measurement notes: Growth inhibition of human SF295 cells assessed as cell growth at 10 uM after 48 hrs by sulforhodamine B assay
# Format: functional
# Test parameters: SF-295, 48 h, read-out: Activity
Consider the following molecules and their measured growth at 10 µM readings.
The reply should contain only the number, in %.

Prompt: # lookup: growth at 10 µM of CCOc1ccc(-n2nc(C(=O)Nc3ccc(F)c(F)c3)nc2-c2cc(OC)c(OC)c(OC)c2)cc1
Response: 60.5

Prompt: # lookup: growth at 10 µM of COc1cccc(-n2nc(C(=O)NCc3ccccc3OC)nc2-c2cc(OC)c(OC)c(OC)c2)c1
Response: 95.1

Prompt: # lookup: growth at 10 µM of COc1cccc(-n2nc(C(=O)Nc3ccccc3)nc2-c2cc(OC)c(OC)c(OC)c2)c1
Response: 91.9

Others:
Prompt: # lookup: growth at 10 µM of COc1cccc(-n2nc(C(=O)NCc3ccccc3C)nc2-c2cc(OC)c(OC)c(OC)c2)c1
Response: 76.1
